Target: Cytochrome P450 2C9 (Homo sapiens)
Test: Cytochrome panel assay with activity outcomes
Conditions: recombinant CYP, pro-luciferin dealkylation, luminescence, p450-cyp2c9; series mostly up to 57.1 µM
In all, about 16,000 compounds went through this assay and about 4,000 (25%) were called active. Another 26% or so got no clear call; they are omitted. Calls come from the whole dose curve; as a rule, active = well fitted curve in the direction sought with a large enough effect; inconclusive = small, poorly fitted or top-dose-only effect, or effect the other way; inactive = no such curve, though single readings can be large or run the other way. The list is a sample of the results.
Labels: active, inactive

smiles-record: Cn1cccc1C(=O)N1CCC[C@@]2(CCN(c3ccncc3)C2)C1
target: Cytochrome P450 2C9 (Homo sapiens)
assigned-category: inactive
--
smiles-record: Cc1nnc(NS(=O)(=O)c2ccc(N)cc2)s1
target: Cytochrome P450 2C9 (Homo sapiens)
assigned-category: inactive
--
smiles-record: O=c1c(-c2ccc(F)cc2)nc2cnc(N3CCNCC3)nc2n1Cc1cccs1
target: Cytochrome P450 2C9 (Homo sapiens)
assigned-category: active
--
smiles-record: Cc1nc2cnc(N3CCNCC3)nc2n(Cc2cccs2)c1=O
target: Cytochrome P450 2C9 (Homo sapiens)
assigned-category: inactive
--
smiles-record: CN=C1S/C(=C\c2ccc(Sc3ccc(Cl)cc3)o2)C(=O)N1C
target: Cytochrome P450 2C9 (Homo sapiens)
assigned-category: active
--
smiles-record: Cc1ccc(S(=O)(=O)Nc2nc(C)c(NC(=O)Nc3ccc(Cl)cc3Cl)s2)cc1
target: Cytochrome P450 2C9 (Homo sapiens)
assigned-category: active
--
smiles-record: Clc1ccc(Sc2ccc(/C=N/n3cnnc3)o2)cc1
target: Cytochrome P450 2C9 (Homo sapiens)
assigned-category: active
--
smiles-record: COc1ccc(-c2nc3cnc(N4CCN(C)CC4)nc3n(Cc3cccs3)c2=O)cc1
target: Cytochrome P450 2C9 (Homo sapiens)
assigned-category: inactive
--
smiles-record: Cn1cccc1C(=O)N1CCC2(CC1)CN(c1ccncc1)C2
target: Cytochrome P450 2C9 (Homo sapiens)
assigned-category: active
--
smiles-record: O=c1c(-c2ccc(Cl)cc2)nc2cnc(N3CCNCC3)nc2n1Cc1cccs1
target: Cytochrome P450 2C9 (Homo sapiens)
assigned-category: active
--
smiles-record: CN(C)c1ccnc(Oc2ccc(Cl)cc2)c1C#N
target: Cytochrome P450 2C9 (Homo sapiens)
assigned-category: active
